All figures here come from patent US20210388087A1.

molecular target: T1, Human CD137 ECD (human); assay: Biacore SPR, vs parent H183/L072
T1 construct: entry includes C-terminal His-tag and biotin acceptor peptide; also called human CD137 extracellular domain; 4-1BB
T1 sequence (chain, as listed by the source limits assumed): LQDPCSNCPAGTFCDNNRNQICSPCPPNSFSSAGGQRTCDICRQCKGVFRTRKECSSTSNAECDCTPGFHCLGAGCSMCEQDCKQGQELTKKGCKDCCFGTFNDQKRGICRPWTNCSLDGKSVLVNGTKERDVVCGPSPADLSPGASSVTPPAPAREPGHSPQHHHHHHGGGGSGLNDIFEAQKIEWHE
Examples of binders with documented fold change of affinity follow.

>  <binder>
H183/L072 VL R54A (antibody, name in Kabat numbering, V domains shown, Dual-Ig) VH: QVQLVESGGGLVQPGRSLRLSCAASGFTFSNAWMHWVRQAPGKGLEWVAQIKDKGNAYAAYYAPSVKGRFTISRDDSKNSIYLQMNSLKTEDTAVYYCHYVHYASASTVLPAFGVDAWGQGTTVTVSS VL: DIVMTQSPLSLPVTPGEPASISCQASQELVHMNRNTYLHWYQQKPGQAPRLLIYKVSNAFPGVPDRFSGSGSGTDFTLKISRVEAEDVGVYYCAQGTSVPFTFGQGTKLEIK

>  <fold change of affinity [fold]>
0.9

$$$$
>  <binder>
H183/L072 VL V51D (antibody, name in Kabat numbering, V domains shown, Dual-Ig) VH: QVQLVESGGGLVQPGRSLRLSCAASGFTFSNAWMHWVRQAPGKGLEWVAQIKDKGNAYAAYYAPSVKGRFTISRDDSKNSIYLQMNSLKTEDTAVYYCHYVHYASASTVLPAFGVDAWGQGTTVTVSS VL: DIVMTQSPLSLPVTPGEPASISCQASQELVHMNRNTYLHWYQQKPGQAPRLLIYKDSNRFPGVPDRFSGSGSGTDFTLKISRVEAEDVGVYYCAQGTSVPFTFGQGTKLEIK

>  <fold change of affinity [fold]>
0

$$$$
>  <binder>
H183/L072 VL Q24I (antibody, name in Kabat numbering, V domains shown, Dual-Ig) VH: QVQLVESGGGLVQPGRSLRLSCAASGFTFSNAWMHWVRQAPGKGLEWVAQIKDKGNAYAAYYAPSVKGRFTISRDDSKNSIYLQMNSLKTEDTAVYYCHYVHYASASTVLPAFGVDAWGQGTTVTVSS VL: DIVMTQSPLSLPVTPGEPASISCIASQELVHMNRNTYLHWYQQKPGQAPRLLIYKVSNRFPGVPDRFSGSGSGTDFTLKISRVEAEDVGVYYCAQGTSVPFTFGQGTKLEIK

>  <fold change of affinity [fold]>
0.9

$$$$
>  <binder>
H183/L072 VL V27cI (antibody, name in Kabat numbering, V domains shown, Dual-Ig) VH: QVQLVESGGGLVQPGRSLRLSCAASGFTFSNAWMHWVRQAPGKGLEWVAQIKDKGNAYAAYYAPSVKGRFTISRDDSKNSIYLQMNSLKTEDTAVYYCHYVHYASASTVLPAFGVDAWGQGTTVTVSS VL: DIVMTQSPLSLPVTPGEPASISCQASQELIHMNRNTYLHWYQQKPGQAPRLLIYKVSNRFPGVPDRFSGSGSGTDFTLKISRVEAEDVGVYYCAQGTSVPFTFGQGTKLEIK

>  <fold change of affinity [fold]>
1

$$$$
>  <binder>
H183/L072 VL E27aR (antibody, name in Kabat numbering, V domains shown, Dual-Ig) VH: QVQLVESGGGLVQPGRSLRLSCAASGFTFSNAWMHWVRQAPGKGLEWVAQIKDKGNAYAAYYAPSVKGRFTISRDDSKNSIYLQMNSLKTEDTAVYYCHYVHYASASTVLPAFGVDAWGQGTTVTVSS VL: DIVMTQSPLSLPVTPGEPASISCQASQRLVHMNRNTYLHWYQQKPGQAPRLLIYKVSNRFPGVPDRFSGSGSGTDFTLKISRVEAEDVGVYYCAQGTSVPFTFGQGTKLEIK

>  <fold change of affinity [fold]>
0.9

$$$$
>  <binder>
H183/L072 VL Q90G (antibody, name in Kabat numbering, V domains shown, Dual-Ig) VH: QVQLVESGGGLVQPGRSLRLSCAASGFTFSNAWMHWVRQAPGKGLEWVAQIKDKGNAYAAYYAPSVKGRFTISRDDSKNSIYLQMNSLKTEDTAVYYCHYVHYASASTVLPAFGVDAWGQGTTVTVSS VL: DIVMTQSPLSLPVTPGEPASISCQASQELVHMNRNTYLHWYQQKPGQAPRLLIYKVSNRFPGVPDRFSGSGSGTDFTLKISRVEAEDVGVYYCAGGTSVPFTFGQGTKLEIK

>  <fold change of affinity [fold]>
0

$$$$
>  <binder>
H183/L072 VL Q90V (antibody, name in Kabat numbering, V domains shown, Dual-Ig) VH: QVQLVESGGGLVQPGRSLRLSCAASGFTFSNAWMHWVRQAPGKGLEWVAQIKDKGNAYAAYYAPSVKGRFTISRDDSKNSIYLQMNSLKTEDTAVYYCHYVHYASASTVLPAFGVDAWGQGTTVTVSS VL: DIVMTQSPLSLPVTPGEPASISCQASQELVHMNRNTYLHWYQQKPGQAPRLLIYKVSNRFPGVPDRFSGSGSGTDFTLKISRVEAEDVGVYYCAVGTSVPFTFGQGTKLEIK

>  <fold change of affinity [fold]>
0

$$$$
>  <binder>
H183/L072 VL V27cS (antibody, name in Kabat numbering, V domains shown, Dual-Ig) VH: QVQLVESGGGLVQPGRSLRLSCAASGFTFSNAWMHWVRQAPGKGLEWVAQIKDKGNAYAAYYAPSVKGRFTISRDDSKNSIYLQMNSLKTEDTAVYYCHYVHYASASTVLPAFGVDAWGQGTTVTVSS VL: DIVMTQSPLSLPVTPGEPASISCQASQELSHMNRNTYLHWYQQKPGQAPRLLIYKVSNRFPGVPDRFSGSGSGTDFTLKISRVEAEDVGVYYCAQGTSVPFTFGQGTKLEIK

>  <fold change of affinity [fold]>
0.3

$$$$
>  <binder>
H183/L072 VL M27eT (antibody, name in Kabat numbering, V domains shown, Dual-Ig) VH: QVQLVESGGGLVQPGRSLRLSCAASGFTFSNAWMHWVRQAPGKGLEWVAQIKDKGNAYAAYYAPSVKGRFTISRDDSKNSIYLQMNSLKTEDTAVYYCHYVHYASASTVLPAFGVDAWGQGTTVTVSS VL: DIVMTQSPLSLPVTPGEPASISCQASQELVHTNRNTYLHWYQQKPGQAPRLLIYKVSNRFPGVPDRFSGSGSGTDFTLKISRVEAEDVGVYYCAQGTSVPFTFGQGTKLEIK

>  <fold change of affinity [fold]>
0.9

$$$$
>  <binder>
H183/L072 VL L27bW (antibody, name in Kabat numbering, V domains shown, Dual-Ig) VH: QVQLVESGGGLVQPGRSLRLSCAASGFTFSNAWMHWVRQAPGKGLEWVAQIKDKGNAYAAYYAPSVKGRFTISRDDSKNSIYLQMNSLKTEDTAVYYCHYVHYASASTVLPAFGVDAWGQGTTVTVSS VL: DIVMTQSPLSLPVTPGEPASISCQASQEWVHMNRNTYLHWYQQKPGQAPRLLIYKVSNRFPGVPDRFSGSGSGTDFTLKISRVEAEDVGVYYCAQGTSVPFTFGQGTKLEIK

>  <fold change of affinity [fold]>
0.3

$$$$
